B1: TBX5 (parent)
chain: YQNHKITQLKIENNPFAKGFRGSD

- Variants of: B1
- assay-remarks: protein stability index of a GFP-peptide fusion (GPS, HEK-293T) (PSI 1-6); higher = more stable;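 also: lentivirally expressed fusions sorted by FACS into six bins by GFP to DsRed ratio, PSI derived from sequencing read proportions per bin multiplied by bin number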
- test-settings: c terminus: a fixed tail appended
# thresholds on protein stability index define classes: low = under 2, medium = from 2 up to 3, high = 3 and over

Q) Given F20Q , name the class its protein stability index places it in.
A) high

Q) Given F20H , name the class its protein stability index places it in.
A) high

Q) Given G19S , name the class its protein stability index places it in.
A) medium

Q) Given Q8K , name the class its protein stability index places it in.
A) medium

Q) Given N14W , name the class its protein stability index places it in.
A) low

Q) Given F20Y , name the class its protein stability index places it in.
A) medium

Q) Given N3A , name the class its protein stability index places it in.
A) low

Q) Given G19E , name the class its protein stability index places it in.
A) high

Q) Given F16P , name the class its protein stability index places it in.
A) high

Q) Given Q8Y , name the class its protein stability index places it in.
A) low

Q) Given R21E , name the class its protein stability index places it in.
A) medium

Q) Given Q2F , name the class its protein stability index places it in.
A) medium

Q) Given Q8H , name the class its protein stability index places it in.
A) medium

Q) Given H4S , name the class its protein stability index places it in.
A) medium

Q) Given R21W , name the class its protein stability index places it in.
A) low

Q) Given A17P , name the class its protein stability index places it in.
A) medium

Q) Given N14P , name the class its protein stability index places it in.
A) medium

Q) Given F20V , name the class its protein stability index places it in.
A) medium

Q) Given K18V , name the class its protein stability index places it in.
A) medium

Q) Given D24N , name the class its protein stability index places it in.
A) medium

Q) Given A17G , name the class its protein stability index places it in.
A) medium

Q) Given A17R , name the class its protein stability index places it in.
A) medium

Q) Given P15S , name the class its protein stability index places it in.
A) medium

Q) Given K10C , name the class its protein stability index places it in.
A) medium

Q) Given A17I , name the class its protein stability index places it in.
A) medium

Q) Given K18F , name the class its protein stability index places it in.
A) low

Q) Given T7W , name the class its protein stability index places it in.
A) high

Q) Given R21V , name the class its protein stability index places it in.
A) medium

Q) Given D24Q , name the class its protein stability index places it in.
A) low

Q) Given P15G , name the class its protein stability index places it in.
A) medium

Q) Given N14H , name the class its protein stability index places it in.
A) medium

Q) Given H4W , name the class its protein stability index places it in.
A) medium

Q) Given Q8N , name the class its protein stability index places it in.
A) medium

Q) Given N3E , name the class its protein stability index places it in.
A) high

Q) Given G19C , name the class its protein stability index places it in.
A) low

Q) Given F16R , name the class its protein stability index places it in.
A) high

Q) Given N13C , name the class its protein stability index places it in.
A) medium

Q) Given I11R , name the class its protein stability index places it in.
A) medium

Q) Given P15V , name the class its protein stability index places it in.
A) medium

Q) Given G19P , name the class its protein stability index places it in.
A) medium

Q) Given N14K , name the class its protein stability index places it in.
A) medium
